Please provide measured growth for the entries that follow.
test system: SN12C renal; experiment: NCI-60 one-dose screen, 48 h (100 = growth as untreated, 0 = no growth, -100 = all killed); details: 10 µM unless noted
The panel holds about 83,000 compounds, 20% with a hit somewhere; the sample as a whole holds those more often. Activity calls are given as the source filed them. Rule for the calls: active = growth percent below 10; inactive = the rest.

Task: Could you please provide reported growth for `O=C(Nc1cccc(Cl)c1)c1ccc(Cl)cc1Cl` ? Thanks!
Output: 92.9% (inactive)

Task: Could you please provide reported growth for `CCOC(=O)c1c(C)[nH]c(C)c1C=O` ? Thanks!
Output: 95.8% (inactive)

Task: Could you please provide reported growth for `Nc1ccc2ccccc2c1-c1c(N)ccc2ccccc12` ? Thanks!
Output: 37% (inactive)

Task: Could you please provide reported growth for `Cn1c(=O)c2[nH]c(CC(=O)O)nc2n(C)c1=O` ? Thanks!
Output: 104% (inactive)

Task: Could you please provide reported growth for C=CC(C)C(C)(C)O (stereo not given) ? Thanks!
Output: 109% (inactive)

Task: Could you please provide reported growth for NC(CSSCC(N)C(=O)O)C(=O)O (stereo not given) ? Thanks!
Output: -11.2% (active)

Task: Could you please provide reported growth for `O=C(Oc1ccccc1Cl)c1ccc(Cl)cc1Cl` ? Thanks!
Output: 98.3% (inactive)

Task: Could you please provide reported growth for `CN(C)c1ccc(/C=C/C(=O)c2ccc(NC(N)=O)cc2)cc1` ? Thanks!
Output: 93.3% (inactive)

Task: Could you please provide reported growth for CC(=O)NC(O)C(Cl)Cl (stereo not given) ? Thanks!
Output: 110% (inactive)

Task: Could you please provide reported growth for `O=C(NC(=S)N1CC=CCC1)c1ccccc1` ? Thanks!
Output: 88.4% (inactive)

For each of the compounds below, state growth.
1. Cc1[nH]c(=S)[nH]c(=O)c1C
2. CC1(C)CCC(C)(C)NC(=S)N1

Output:
1. 106% (inactive)
2. 97.1% (inactive)

For each of the compounds below, state growth.
1. C=CCc1cc(OC)c(O)c(OC)c1
2. CCCCNC(=O)c1ccc(OCC)cc1
3. Cc1[nH]n(-c2ccccc2)c(=O)c1C=NC(=S)C(N)=S

Output:
["102% (inactive)", "103% (inactive)", "105% (inactive)"]
